Entries annotated with measured Population Mitochondria Different-Phenotype (%)
System: Fibroblast
Experiment: Multiplex assay against human fibroblast
Assay type: toxicity, cell-based
Conditions: 24 h, 10 µM, compound concentration 10 uM, replicate 1
Quick note: give the figure in %, leave out the unit.

CCOc1cc(N2CCC(O)CC2)ccc1Nc1ncc2c(n1)N(C1CCCC1)CCC(=O)N2C; 1
O=C(O)c1ccc2cc(-c3ccc(O)c(C45CC6CC(CC(C6)C4)C5)c3)ccc2c1 [O-DEMETHYLATED ADAPALENE]; 0
Cl.Cl.Nc1ncnc2c1c(-c1cccc(OCc3ccccc3)c1)cn2[C@H]1C[C@@H](CN2CCC2)C1; 59
Cc1cc2c(cc1N1C(=O)c3cccc4c(CCCO)ccc(c34)C1=O)n(C)c(=O)n2C; 17
CCc1cc2c(cc1CC)CC(NC[C@H](O)c1ccc(O)c3[nH]c(=O)ccc13)C2 [INDACATEROL]; 55
Cc1cn(-c2cc(NC(=O)c3ccc4c(c3)CN(c3cncnc3)C[C@@H]4C)cc(C(F)(F)F)c2)cn1; 10

Lab book: Population Mitochondria Different-Phenotype (%) of `COc1ccc(NS(=O)(=O)c2sc3ccc(Cl)cc3c2C)cc1N1CCNCC1.Cl` noted as 50

Lab book: Population Mitochondria Different-Phenotype (%) of `Nc1ccc(C(=O)Nc2cccc(-c3nc(N4CCOCC4)c4oc5ncccc5c4n3)c2)cn1` noted as 30

Measured values drawn from ChEMBL document CHEMBL4689842 for this set.
